Values from the supplement of paper PMC8975748

System: Saccharomyces cerevisiae BY4741 SeMeCo community
test description: z-score of subpopulation abundance vs DMSO median, subpopulation auxotrophic for HU; higher = larger share of this subpopulation than in DMSO controls
test context: 10 µM; 24 h; SM minimal medium; subpopulation (auxotrophy): HU
Where a name gives a salt, the structure may show the parent alone.
experimental endpoint: z-score of subpopulation abundance
// return just the number, without any unit appended

Query: Hello, please tell me recorded z-score of subpopulation abundance for this one: O=C1NCC2(CCN(CCc3ccccc3)CC2)O1 [Fenspiride HCl]
Result: -0.8

Query: Hello, please tell me recorded z-score of subpopulation abundance for this one: C[C@H]1NCc2cc(-c3ccc4c(=O)c(C(=O)O)cn(C5CC5)c4c3OC(F)F)ccc21 [Garenoxacin]
Result: 0.7

Query: Hello, please tell me recorded z-score of subpopulation abundance for this one: CN(C)[C@@H](CCOc1cccc2ccccc12)c1ccccc1 [Dapoxetine HCl]
Result: -0.49

Query: Hello, please tell me recorded z-score of subpopulation abundance for this one: CCOC(=O)C1=C(C)NC(C)=C(C(=O)OC)C1c1cccc(Cl)c1Cl (centres undefined) [Felodipine]
Result: -6.8

Query: Hello, please tell me recorded z-score of subpopulation abundance for this one: Cc1cc(C)nc(NS(=O)(=O)c2ccc(N)cc2)n1 [Sulfamethazine Sodium Salt]
Result: 0.05

Query: Hello, please tell me recorded z-score of subpopulation abundance for this one: COCCCC/C(=N\OCCN)c1ccc(C(F)(F)F)cc1 [Fluvoxamine maleate]
Result: -0.5

Query: Hello, please tell me recorded z-score of subpopulation abundance for this one: Cc1ncc([N+](=O)[O-])n1CCOC(=O)c1ccccc1 [Metronidazole Benzoate]
Result: -1

Query: Hello, please tell me recorded z-score of subpopulation abundance for this one: CC/C(=C(/CC)c1ccc(O)cc1)c1ccc(O)cc1 [Diethylstilbestrol]
Result: -1.29

Query: Hello, please tell me recorded z-score of subpopulation abundance for this one: CC1=C(C(=O)OC(C)C)C(c2cccc([N+](=O)[O-])c2)C(C(=O)OC2CN(C(c3ccccc3)c3ccccc3)C2)=C(N)N1 (centres undefined) [Azelnidipine]
Result: 1.39

Query: Hello, please tell me recorded z-score of subpopulation abundance for this one: NC[C@H]1O[C@H](O[C@H]2[C@H](O)[C@@H](O[C@H]3O[C@H](CO)[C@@H](O)[C@H](N)[C@H]3O)[C@H](N)C[C@@H]2N)[C@H](N)C[C@@H]1O [Tobramycin]
Result: 0

Query: Hello, please tell me recorded z-score of subpopulation abundance for this one: CO/N=C(\C(=O)N[C@@H]1C(=O)N2C(C(=O)O)=C(Cn3ccc(=N)n3CCO)CS[C@H]12)c1csc(N)n1 [Cefoselis Sulfate]
Result: -0.72

Query: Hello, please tell me recorded z-score of subpopulation abundance for this one: COc1ccc(Cc2cnc(N)nc2N)cc1OC [Diaveridine]
Result: -0.25

Query: Hello, please tell me recorded z-score of subpopulation abundance for this one: CNS(=O)(=O)CCc1ccc2[nH]cc(C3CCN(C)CC3)c2c1 [Naratriptan HCl]
Result: 0.27

Query: Hello, please tell me recorded z-score of subpopulation abundance for this one: COC(=O)C1=C(C)NC(C)=C(C(=O)OC2CCCN(Cc3ccccc3)C2)C1c1cccc([N+](=O)[O-])c1 (centres undefined) [Benidipine HCl]
Result: -0.01

Query: Hello, please tell me recorded z-score of subpopulation abundance for this one: Cc1nc(=O)c2cc(CN(C)c3ccc(C(=O)N[C@@H](CCC(=O)O)C(=O)O)s3)ccc2[nH]1 [Raltitrexed]
Result: -2.1

Query: Hello, please tell me recorded z-score of subpopulation abundance for this one: CO[C@H]1C[C@@H]2CC[C@@H](C)[C@@](O)(O2)C(=O)C(=O)N2CCCC[C@H]2C(=O)O[C@H]([C@H](C)C[C@@H]2CC[C@@H](OP(C)(C)=O)[C@H](OC)C2)CC(=O)[C@H](C)/C=C(\C)[C@@H](O)[C@@H](OC)C(=O)[C@H](C)C[C@H](C)/C=C/C=C/C=C/1C [Ridaforolimus (Deforolimus, MK-8669)]
Result: 25.9

Query: Hello, please tell me recorded z-score of subpopulation abundance for this one: O=c1cc(-c2ccc(O)c(O)c2)oc2cc(O)cc(O)c12 [Luteolin]
Result: 1.42

Query: Hello, please tell me recorded z-score of subpopulation abundance for this one: CN[C@H](CC(C)C)C(=O)N[C@H]1C(=O)N[C@@H](CC(N)=O)C(=O)N[C@H]2C(=O)N[C@H]3C(=O)N[C@H](C(=O)N[C@H](C(=O)O)c4cc(O)cc(O)c4-c4cc3ccc4O)[C@H](O)c3ccc(c(Cl)c3)Oc3cc2cc(c3O[C@@H]2O[C@H](CO)[C@@H](O)[C@H](O)[C@H]2O[C@H]2C[C@](C)(N)[C@H](O)[C@H](C)O2)Oc2ccc(cc2Cl)[C@H]1O [Vancomycin]
Result: -0.91

Query: Hello, please tell me recorded z-score of subpopulation abundance for this one: CO[C@H]1C[C@@H]2CC[C@@H](C)[C@@](O)(O2)C(=O)C(=O)N2CCCC[C@H]2C(=O)O[C@H]([C@H](C)C[C@@H]2CC[C@@H](OCCO)[C@H](OC)C2)CC(=O)[C@H](C)/C=C(\C)[C@@H](O)[C@@H](OC)C(=O)[C@H](C)C[C@H](C)/C=C/C=C/C=C/1C [Everolimus (RAD001)]
Result: 27.1

Query: Hello, please tell me recorded z-score of subpopulation abundance for this one: OC(c1ccccc1)(c1ccccc1)C12CC[N+](CCOCc3ccccc3)(CC1)CC2 [Umeclidinium bromide]
Result: -0.27

Query: Hello, please tell me recorded z-score of subpopulation abundance for this one: CN1CCN(CCCN2c3ccccc3Sc3ccc(C(F)(F)F)cc32)CC1 [Trifluoperazine 2HCl]
Result: 0.54

Query: Hello, please tell me recorded z-score of subpopulation abundance for this one: Clc1ccccc1C(c1ccccc1)(c1ccccc1)n1ccnc1 [Clotrimazole]
Result: 6.35

Query: Hello, please tell me recorded z-score of subpopulation abundance for this one: Cc1cc(CC(C)CC(C)(C)C)n(O)c(=O)c1 (centres undefined) [Piroctone Olamine]
Result: 31.8

Query: Hello, please tell me recorded z-score of subpopulation abundance for this one: CN(C/C=C/C#CC(C)(C)C)Cc1cccc2ccccc12 [Terbinafine HCl]
Result: 0.89

Query: Hello, please tell me recorded z-score of subpopulation abundance for this one: Clc1ccc(C(Cn2ccnc2)OCc2ccsc2Cl)c(Cl)c1 (centres undefined) [Tioconazole]
Result: 10.2

Query: Hello, please tell me recorded z-score of subpopulation abundance for this one: N#Cc1ccc2[nH]cc(CCCCN3CCN(c4ccc5oc(C(N)=O)cc5c4)CC3)c2c1 [Vilazodone]
Result: -0.93

Query: Hello, please tell me recorded z-score of subpopulation abundance for this one: COc1cc(NS(=O)(=O)c2ccc(N)cc2)nc(OC)n1 [SulfadiMethoxine sodium]
Result: 0.29

Query: Hello, please tell me recorded z-score of subpopulation abundance for this one: C[C@]12CC[C@@H]3c4ccc(OC(=O)c5ccccc5)cc4CC[C@H]3[C@@H]1CC[C@@H]2O [Estradiol Benzoate]
Result: -0.12

Query: Hello, please tell me recorded z-score of subpopulation abundance for this one: Cn1c(=O)c2c(ncn2CC2OCCO2)n(C)c1=O [Doxofylline]
Result: -0.64

----------
Tested on: Saccharomyces cerevisiae BY4741 SeMeCo community
test description: z-score of subpopulation abundance vs DMSO median, subpopulation auxotrophic for LU; higher = larger share of this subpopulation than in DMSO controls
test context: 10 µM; 24 h; SM minimal medium; subpopulation (auxotrophy): LU
Could you please report measured z-score of subpopulation abundance for the items listed next?
// return just the number, without any unit appended

Query: State the measured z-score of subpopulation abundance (Saccharomyces cerevisiae BY4741 SeMeCo community) of "OCc1ccc(Cl)cc1Cl"
Result: 1.19

Query: State the measured z-score of subpopulation abundance (Saccharomyces cerevisiae BY4741 SeMeCo community) of CN1CCN2c3ncccc3Cc3ccccc3C2C1 (centres undefined)
Result: -0.59

Query: State the measured z-score of subpopulation abundance (Saccharomyces cerevisiae BY4741 SeMeCo community) of COC(=O)C1=C(C)NC(C)=C(C(=O)OC(C)C)C1c1cccc2nonc12 (centres undefined)
Result: 0.62

Query: State the measured z-score of subpopulation abundance (Saccharomyces cerevisiae BY4741 SeMeCo community) of "CC1(C)S[C@@H]2[C@H](NC(=O)Cc3ccccc3)C(=O)N2[C@H]1C(=O)O.CCN(CC)CCOC(=O)c1ccc(N)cc1"
Result: 0.41

----------
System: Saccharomyces cerevisiae BY4741 SeMeCo community
test description: mean cell size (pixel area) (pixels); higher = larger cells
test context: 10 µM; 24 h; SM minimal medium
Where a name gives a salt, the structure may show the parent alone.
experimental endpoint: mean cell size
// return just the number, without any unit appended

Query: Hello, please tell me recorded mean cell size for this one: CN(C)CCC=C1c2ccccc2C(C)(C)c2ccccc21 [Melitracen hydrochloride]
Result: 12

Query: Hello, please tell me recorded mean cell size for this one: CN[C@H]1CC[C@@H](c2ccc(Cl)c(Cl)c2)c2ccccc21 [Sertraline HCl]
Result: 12.4

Query: Hello, please tell me recorded mean cell size for this one: C[C@@H](O)[C@H]1C(=O)N2C(C(=O)O)=C(S[C@@H]3CN[C@H](C(=O)Nc4cccc(C(=O)O)c4)C3)[C@H](C)[C@H]12 [Ertapenem sodium]
Result: 11.9

Query: Hello, please tell me recorded mean cell size for this one: "Cc1cc(/C=C/c2ccc3cc(N(C)C)ccc3[n+]2C)c(C)n1-c1ccccc1"
Result: 12.4

Query: Hello, please tell me recorded mean cell size for this one: CCCCCCCCOc1ccccc1C(=O)Nc1ccc(C(=O)OCC[N+](C)(CC)CC)cc1 [Otilonium Bromide]
Result: 12.3

Query: Hello, please tell me recorded mean cell size for this one: CN1C[C@@H]2C[C@H]1CN2c1cc2c(cc1F)c(=O)c(C(=O)O)cn2C1CC1 [Danofloxacin Mesylate]
Result: 12.1

Query: Hello, please tell me recorded mean cell size for this one: "COC(=O)Nc1nc2cc(Sc3ccccc3)ccc2[nH]1"
Result: 12.3

Query: Hello, please tell me recorded mean cell size for this one: CCCCN(CCCC)CC(O)c1cc(Cl)cc2c1-c1ccc(Cl)cc1/C2=C/c1ccc(Cl)cc1 (stereo unspecified)
Result: 12.4

Query: Hello, please tell me recorded mean cell size for this one: "Cn1c([N+](=O)[O-])cnc1COC(N)=O"
Result: 12.5

Query: Hello, please tell me recorded mean cell size for this one: "CC[C@H](Nc1ncnc2[nH]cnc12)c1nc2cccc(F)c2c(=O)n1-c1ccccc1"
Result: 12.6

Query: Hello, please tell me recorded mean cell size for this one: "c1ccc2[nH]c(-c3cscn3)nc2c1"
Result: 12.3

Query: Hello, please tell me recorded mean cell size for this one: "CCC1(c2ccccc2)C(=O)NCNC1=O"
Result: 12.6

Query: Hello, please tell me recorded mean cell size for this one: "CC(C)c1c(C(=O)Nc2ccccc2)c(-c2ccccc2)c(-c2ccc(F)cc2)n1CC[C@@H](O)C[C@@H](O)CC(=O)O"
Result: 11.1

Query: Hello, please tell me recorded mean cell size for this one: C=C[C@]1(C)C[C@@H](OC(=O)CSC(C)(C)CNC(=O)[C@H](N)C(C)C)[C@]2(C)[C@H](C)CC[C@]3(CCC(=O)[C@H]32)[C@@H](C)[C@@H]1O [Valnemulin HCl]
Result: 12.3

Query: Hello, please tell me recorded mean cell size for this one: O=C1Cc2cc(CCN3CCN(c4nsc5ccccc45)CC3)c(Cl)cc2N1 [Ziprasidone HCl]
Result: 12.2

Query: Hello, please tell me recorded mean cell size for this one: CC(=O)OCC[N+](C)(C)C [Acetylcholine iodide]
Result: 12.4
